Cited source for all entries: patent US20240409645A1

- assayed target: T1, mouse IL-2Rα (mouse) (UniProt P01590)
- T1 sequence (looked up): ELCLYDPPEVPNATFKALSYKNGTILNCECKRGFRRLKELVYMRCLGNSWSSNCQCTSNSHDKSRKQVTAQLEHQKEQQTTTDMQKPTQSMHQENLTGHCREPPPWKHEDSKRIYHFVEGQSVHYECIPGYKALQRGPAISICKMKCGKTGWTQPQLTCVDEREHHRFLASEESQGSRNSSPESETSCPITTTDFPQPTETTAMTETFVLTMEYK
- assay name: ELISA, P.E. on coated antigen
Field: OD (PE binding ELISA). Provide a value for each of the binders that follow.
Give bare numbers, in OD450 nm.

Field: example entries. Status: answers known.
1) FJ1427_P035MP01D11 (VHH) VHH: QLQLVESGGGLVQAGDSLRLSCAASGRSFRNYIMAWYRQAPGKEREFLAAISWLDGTLYADSVEDRFTISRDNPKNTVHLQMDSLKPEDTAVYYCAADRGPVRPVLAPDVDYWGQGTQVTVSS	0.045
2) FJ1427_P035MP01H11 (VHH) VHH: QVQLVESGGGLVQAGGSLRLSCAASGRTFRTHNMGWFRRAPGKEREFVAAISWNVDNTLYADSVKGRFTISRDNDRNMVYLQMNSLKPEDTAVYFCAADNIPLSSDVRATATEFGYWGQGTRVTVSS	0.047
3) 1-MP01H01 (VHH) VHH: EVQLVESGGGLVQAGGSLRLSCAASGRTFRTHNMGWFRRAPGKEREFVAAISWNVDNTLYADSVKGRFTISRDNGRNMVYLQMNSLKPEDTAVYYCAADNIPLSSDVAATATEYDYWGQGTQVTVSS	0.048
4) FJ1427_P035MP01C03 (VHH) VHH: EVQLVESGGGLVQPGGSLRLSCATSGFTFRNNFMSWVRQAPGKGLEWVSTISYGGESTTYAESVKGRFTISRDNAKNTLYLQMNNLKPEDTAVYYCAKATSYDSIRSGSRGQGTQVTVSS	0.045
5) FJ1427_P035MP01F06 (VHH) VHH: QLQLVESGGGLVQAGGSLRLSCAASGGAFSRYAVGWFRMAPGKGREFVSAIDLSGTNTHVLDSVKGRFTISRDNDKNTAYLQMDKLQPEDTAVYWCAATSSSYSDYEANYNIWGQGTQVTVSS	0.046
6) FJ1427_P035MP01D08 (VHH) VHH: EVQLVESGGGLVQAGGSLRLSCAASGGTFRTRNMGWFRRAPGKEREFVAAVSWNVDNKLYAGSVKGRFTISRDNGRNMVYLQMNSLKPEDTAVYYCAADNIPLSSDMRPTATEYDYWGQGTQVTVSS	0.045

Hi! Can you tell me OD (PE binding ELISA) for each of these binders?
1. FJ1427_P035MP01H10 (VHH) VHH: QVQLVESGGGLVETGGSLRLSCAASGITFNDHTMAWFRQAPGKEREFVAARDWSDIITRYASSVKGRFTISRDNAGNTGFLQMNSLRPEDTAVYYCAAREGGVVAGVRSGAPYDYWGQGTQVTVSS
2. FJ1427_P035MP01D09 (VHH) VHH: QVQLVESGGGLVQPGGSLRLSCAASGFTFSNNFMSWVRQAPGKGLEWVSTISYGGESTTYAESVKGRFTISRDNAKNTLYLQMNNLKPEDTAVYYCAKATSYDSIRSGSRGQGTQVTVSS

Result string:
1: 0.057; 2: 0.045
